Record form. Attribute: TGI. Fill in for each entry.
- Tested on: NCI-H460 lung
- assay: NCI tumour cell line growth inhibition, 48 h

What value of measured TGI is listed for CC(=O)OCCOCNC(=S)N/N=C(\C)c1cccs1 ? > 100 µM

Would you mind doing CCCCCCCCCCC[C@@H](C[C@H]1OC(=O)[C@H]1CCCCCC)OC(=O)[C@@H](CC(C)C)NC=O as well? 21.1 µM

Please answer likewise for CCOC(=O)Cn1c(-c2nonc2NC(=O)c2ccccc2F)nc2ccccc21 > 100 µM

Lookup Cn1cnc(SC2=C3C(=O)C=C4S[C@H]5C[C@]42c2c(c(O)c4c6c2=[N+]3CCC=6C=N4)N5)c1CC(N)C(=O)O (stereo not given in full) > 100 µM

// next record OCC(O)COc1c(Cl)cc(Cl)cc1Cl (stereo not given) > 100 µM

And what about the molecule CC(=O)OCC1OC(SC2=NC(=O)/C(=C/c3ccccc3)S2)C(OC(C)=O)C(OC(C)=O)C1OC(C)=O (stereo not given) ? > 100 µM

Follow-up entry: CCOC1NC(/N=C/c2ccc(OC)cc2)=C(C#N)C1C#N (stereo not given) > 100 µM

One more molecule: CN(C)CCNC(=O)c1c2ccccc2cc2ccccc12 > 100 µM

Now the molecule CCOC(=O)c1ccc(N(C=O)CCC(=O)CCl)cc1 11.1 µM

What about this molecule? COc1ccc(N2C(=O)C3c4[nH]c5ccccc5c4C4c5ccccc5CC4C3C2=O)cc1 (stereo not given) > 100 µM

###

- Test system: BT-549 breast
- assay: NCI tumour cell line growth inhibition, 48 h
Give measured GI50 for each item. Keep answers brief.

Returns the measured GI50 for the input molecule. Input: COc1ccc(-c2nnc(SCC(=O)Nc3ccc(C(=O)/C=C/c4cc(OC)c(OC)c(OC)c4)cc3)n2-c2ccccc2)cc1OC 1980 nM

Here is the next molecule: COc1ccc2c(c1)C(=O)c1c-2c(N2CCN(C(=O)CNCCN(C)C)CC2)nc2ccccc12 1750 nM

Next up: CC(C)C[CH2][Ge]([CH2]CC(C)C)([CH2]CC(C)C)[CH2]CC(C)C > 100000 nM

And for COc1ccc2c(c1)[nH]c(=O)c1c3cc(OC)c(OC)cc3cn21 ? < 24 nM

Then what about the molecule O=C(NO)c1ccc(Cn2c(=O)n(-c3ccccc3)c(=O)c3ccccc32)cc1 ? 1550 nM

Similarly, CCOC(=O)Cn1c(-c2nonc2NC(=O)c2ccccc2F)nc2ccccc21 ? 5910 nM

Input CN(C)c1ccc(Nc2c3ccccc3nc3cc(NC(=O)CCN4CCCC4)ccc23)cc1 1300 nM

Do the same for COc1cc(-c2nc(-c3ccc(-c4nc5ccc(F)cc5[nH]4)cc3)no2)cc(OC)c1OC please 3490 nM

Could you do the same for COc1ccc(/C=N\NC(=O)c2ccc3nc(-c4ccc(Cl)cc4)[nH]c3c2)cc1 , please? 3360 nM

Same question, Cc1ccc(-c2cc(-c3ccc(C)cc3)nc(N3CCN(CCNc4ccnc5cc(Cl)ccc45)CC3)n2)cc1 this time 6060 nM

Next record, please: COc1ccc(C(=O)/C=C/c2cc(-c3ccc4c(c3)OCO4)n[nH]2)cc1OC 1970 nM

Please do the same for O=c1c2c(=NCCN3CCCC3)cc3c(=O)n(CCCN4CCOCC4)c(=O)c4ccc(c(O)n1CCCN1CCOCC1)c2c4-3 as well. 917 nM

Same thing, different molecule: O=C1CC(c2ccsc2)c2snc(-c3ccc(Cl)cc3)c2N1 (configuration not stated) 2260 nM

Now give it for Cc1ccc2nc3c(n2c1)C(=O)C(=O)c1ccccc1-3 too. 168 nM

Also check Fc1ccc([C@@H]2CCNC[C@H]2COc2ccc3c(c2)OCO3)cc1 12200 nM

How about CCSc1ccc([C@@H]2[C@@H](N)C(=O)N2c2cc(OC)c(OC)c(OC)c2)cc1 ? 59.2 nM

Can you handle C=C(C)[C@@H]1CC[C@]2(C(=O)O)CC[C@]3(C)[C@H](CC[C@@H]4[C@@]5(C)C/C(=C/c6cccc(I)c6)C(=O)C(C)(C)[C@@H]5CC[C@]43C)[C@@H]12 next? 2200 nM

###

- Test system: HCT-15 colon
- assay: NCI tumour cell line growth inhibition, 48 h
value-kind: TGI (µM)
Write the answer as a number in µM, unit excluded.

Item CN(C)c1ccc(Nc2c3ccccc3nc3cc(NC(=O)CCN4CCCC4)ccc23)cc1 with HCT-15 colon - TGI? 2.2

Request: Cc1ccc2nc3c(n2c1)C(=O)C(=O)c1ccccc1-3 0.416

Now give it for CCOC(=O)c1ccccc1SC(C[N+](=O)[O-])c1ccccc1 (centres undefined) too. 6.78

###

- Tested on: HT29 colon
- assay: NCI tumour cell line growth inhibition, 48 h
value-kind: TGI (µM)
// return numeric value only (unit: µM, not printed)

# TGI lookup, item O=C(c1ccccc1O)c1cc(-c2ncc3c(=O)c4ccccc4oc3n2)c(-c2ccccc2O)[nH]c1=O 77.6

Please answer likewise for CC(C)=CCC[C@@H](C)C1=CC(=O)C(C)=C(O)C1=O 22.5

###

- System: BT-549 breast
- assay: NCI tumour cell line growth inhibition, 48 h
I'd appreciate it if you could supply TGI values for the items below.
Give just the number in µM; leave the unit off.

Provide the documented TGI with BT-549 breast as the system for COc1ccc(-n2cc(-c3cc(OC)c(OC)c(OC)c3)[nH]c2=S)cc1Cl 31.3

Then this compound: O=C(Cc1csc2nc(-c3ccc(Br)cc3)cn12)N/N=C/c1ccc(Cl)cc1Cl 76.9

One more compound: COc1ccc(N2N=NN(C(C)C)/C2=C(/Cl)c2nnnn2-c2ccc(OC)cc2)cc1 29.7

Another compound to look at: Cc1ccc2nc3c(n2c1)C(=O)C(=O)c1ccccc1-3 0.307

Input O=C(Nc1ccc(Oc2ccc(NC(=O)Nc3ccc([N+](=O)[O-])cc3)cc2)cc1)Nc1ccc([N+](=O)[O-])cc1 7.36

Try CC(=O)OCC1OC(SC2=NC(=O)/C(=C/c3ccccc3)S2)C(OC(C)=O)C(OC(C)=O)C1OC(C)=O (centres undefined) next. 78.9

Okay, and COC1=CC(=O)c2nc3ccccc3c3ccnc1c23 ? 29.6

Input CN(C)c1ccc(Nc2c3ccccc3nc3cc(NC(=O)CCN4CCCC4)ccc23)cc1 2.73

Query COc1ccc(-c2nnc(SCC(=O)Nc3ccc(C(=O)/C=C/c4cc(OC)c(OC)c(OC)c4)cc3)n2-c2ccccc2)cc1OC next 7.99

Param item: CN1CCN(c2ccc3nc(-c4[nH]ncc4Nc4ncnc5c4OCCCN5)[nH]c3c2)CC1 0.0384

###

- Tested on: CAKI-1 renal
- assay: NCI tumour cell line growth inhibition, 48 h; in the data active means GI50 below about 0.43 µM; inactive means the rest
Please state which outcome applies, choosing from 1.0 (active), 0.0 (inactive)

# lookup: test call for Oc1ccc(Oc2cnc3cc(Cl)ccc3n2)cc1 0.0

Follow-up item: Fc1ccc([C@@H]2CCNC[C@H]2COc2ccc3c(c2)OCO3)cc1 0.0

Also, CCCCCCCCNC(C)C(O)c1ccc(SC(C)C)cc1 (centres undefined) please. 0.0

Input O=C1NC(=O)[C@@H](c2c[nH]c3ccccc23)[C@@H]1c1c[nH]c2ccccc12 0.0

Let us now turn to CN1CCN(c2ccc3nc(-c4[nH]ncc4Nc4ncnc5c4OCCCN5)[nH]c3c2)CC1 1.0

Now the compound Cc1ccc(-c2cc(-c3ccc(C)cc3)nc(N3CCN(CCNc4ccnc5cc(Cl)ccc45)CC3)n2)cc1 0.0

Can you check Nc1nccc2c1ccn2-c1cccc(NC(=O)c2ccc(N3CCOCC3)c(C(F)(F)F)c2)c1 next? 0.0

One more compound: CC[C@H](C)[C@H](NC(=O)NC(C)(C)C)C(=O)N(C)[C@H](C[C@@H](OC(C)=O)c1nc(C(=O)N[C@@H](Cc2ccccc2)C[C@H](C)C(=O)OC)cs1)C(C)C 0.0

Item: Cc1cc(NCc2cc(Nc3ccnc4cc(Cl)ccc34)ccc2F)nc(N2CCSCC2)n1 0.0

Can you handle O=C(Nc1ccc(Oc2ccc(NC(=O)Nc3ccc([N+](=O)[O-])cc3)cc2)cc1)Nc1ccc([N+](=O)[O-])cc1 next? 0.0

Fc1cccc(Cl)c1Cn1c(-c2c(F)cccc2Cl)nc2ccccc21 , same question. 0.0

Thanks! And CNC(=O)c1cc(Oc2ccc3nc(N[C@@H]4CCCC[C@H]4O)sc3c2)ccn1 ? 0.0

How about this compound: COc1cc(C(=O)O/N=C(\N)Cc2cccc3ccccc23)cc(OC)c1OC 0.0

Another compound to check: COc1ccc(-c2nnc(SCC(=O)Nc3ccc(C(=O)/C=C/c4cc(OC)c(OC)c(OC)c4)cc3)n2-c2ccccc2)cc1OC 0.0

Subsequent entry: O=C(CCN1CCCC1)Nc1ccc2c(NCCc3ccccc3)c3ccccc3nc2c1 0.0

Same read-out for O=C(Nc1ccc(Nc2ccncc2)cc1)c1ccc(Nc2ccnc3ccc([N+](=O)[O-])cc23)cc1[N+](=O)[O-] ? 0.0

For COc1ccc2c(c1)[nH]c(=O)c1c3cc(OC)c(OC)cc3cn21 then? 1.0

Please do the same for O=C(c1ccco1)c1nc2cc(C(F)(F)F)ccc2[n+]([O-])c1C(F)(F)F as well. 0.0

Likewise for CCOC(=O)c1ccccc1SC(C[N+](=O)[O-])c1ccccc1 (centres undefined) ? 0.0

All values here come from PubChem BioAssay (NCI).
